test system: BT-549 breast; assay: NCI-60 one-dose screen, 48 h; settings: 10 µM unless noted
This is part of a sample that, as a whole, favours compounds with a hit. Of some 83,000 tested, about 20% had one in any assay. Calls of active or inactive are those of the source. How the source made its calls: active means growth percent below 10; inactive means the rest.
Pick one: active, inactive

Prompt: I'd appreciate the recorded outcome for COC(OC)C1=C(C)OC(N)=C(C#N)C12C(=O)Nc1ccccc12 (configuration not stated) from this test.
Completion: inactive

Prompt: I'd appreciate the recorded outcome for COc1ccc(NC(=O)Cn2c3c(sc2=O)[C@H]2[C@@H](O)[C@@H](O)[C@H](O)[C@@H]2CS3)cc1 from this test.
Completion: inactive

Prompt: I'd appreciate the recorded outcome for CN(C)CCOc1ccc(C(=O)C2[C@H](c3ccc(Cl)cc3)[C@@H](c3ccccc3)NC23C(=O)Nc2ccccc23)cc1 (some centres not stated) from this test.
Completion: inactive

Prompt: I'd appreciate the recorded outcome for C=C1CC[C@@H]2[C@]3(C)COC(c4cn(-c5ccccc5)nc4-c4cccc([N+](=O)[O-])c4)O[C@@H]3CC[C@@]2(C)[C@@H]1C/C=C1/C(=O)OC[C@H]1O (some centres not stated) from this test.
Completion: active

Prompt: I'd appreciate the recorded outcome for Cc1ccc([C@H]2C(C(=O)c3ccc(Cl)cc3)C3(N[C@@H]2c2ccccc2)C(=O)Nc2ccc(Br)cc23)cc1 (some centres not stated) from this test.
Completion: inactive

Prompt: I'd appreciate the recorded outcome for CC1CCCCN1CCCNC(=O)N/C(N)=N/c1nc2ccccc2s1 (configuration not stated) from this test.
Completion: inactive

Prompt: I'd appreciate the recorded outcome for Cn1cc(NC(=O)c2cc(NC(=O)c3ccc(C#Cc4ccccc4)cc3)cn2C)cc1C(=O)NCCCN1CCOCC1 from this test.
Completion: inactive

Prompt: I'd appreciate the recorded outcome for CCOC(=O)/C=C/c1cccc2c1C(=O)NC(C)(c1cc3cc(Br)ccc3oc1=O)N2 (configuration not stated) from this test.
Completion: active

Prompt: I'd appreciate the recorded outcome for COCOc1cc2oc(C(=O)N[C@@H](Cc3ccccc3)C(O)C(=O)NCc3ccccc3)c(C)c(=O)c2cc1OCOC (some centres not stated) from this test.
Completion: inactive

Prompt: I'd appreciate the recorded outcome for C[C@H](Nc1nc(NCCc2ccccc2)nc2ccccc12)c1ccccc1 from this test.
Completion: active

Prompt: I'd appreciate the recorded outcome for C#CCOc1cc(N(CC)CC)ccc1C(C(=O)NC(C)(C)C)N(C(=O)C1CCc2cc(F)ccc2O1)c1ccc(Br)cc1 (configuration not stated) from this test.
Completion: inactive

Prompt: I'd appreciate the recorded outcome for COc1ccc(-c2ccnc(SCc3cc4cc(OC)ccc4[nH]c3=O)n2)cc1 from this test.
Completion: active

---

tested on: M14 melanoma; assay: NCI-60 one-dose screen, 48 h; settings: 10 µM unless noted
About 83,000 compounds went through this panel and 20% of them were active in at least one assay; those are over-represented in the sample as a whole. Activity calls are given as the source filed them. How the source made its calls: active means growth percent below 10; inactive means the rest.
Pick one: t = active, f = inactive

Example results:
Prompt: I'd appreciate the recorded outcome for C=Cn1cc(C(=O)O)c(=O)c2cc(F)c(N3CCN(c4nccc(-c5nccs5)n4)CC3)cc21 from this test.
Completion: t

Prompt: I'd appreciate the recorded outcome for O=C1CC(Sc2n[nH]c(-c3ccncc3)n2)C(=O)N1c1ccc(Br)cc1 (centres undefined) from this test.
Completion: f

Prompt: I'd appreciate the recorded outcome for O=C(Nc1ccccc1)N1CCN(c2cc(-c3cn(-c4ccccc4)nc3-c3cccc(O)c3)ccn2)CC1 from this test.
Completion: f

Prompt: I'd appreciate the recorded outcome for C=C1CCC2C3(C)COC(c4cccs4)OC3CCC2(C)C1CC(Sc1ccccc1)C1=CCOC1=O (centres undefined) from this test.
Completion: f

---
Prompt: I'd appreciate the recorded outcome for CCCSc1nc(NCCc2c[nH]c3ccccc23)c(C#N)c(-c2ccc(F)cc2)n1 from this test.
Completion: f

Prompt: I'd appreciate the recorded outcome for NS(=O)(=O)c1ccc(N=Nc2c(O)n(CC(=O)Nc3ccccc3Cl)c3ccccc23)cc1 from this test.
Completion: f

Prompt: I'd appreciate the recorded outcome for COc1cc2c(c(OC)c1OC)C(=O)CC(c1cccc(NC(=O)c3cc(NC(=O)[C@H](CO)NC(=O)OC(C)(C)C)ccc3Cl)c1)O2 (some centres undefined) from this test.
Completion: f

Prompt: I'd appreciate the recorded outcome for C=C1CCC2C3(C)COC(c4cc(F)cc(F)c4)OC3CCC2(C)C1CC(O)C1=CCOC1=O (centres undefined) from this test.
Completion: f

Prompt: I'd appreciate the recorded outcome for C=C1CCC2C3(C)COC(c4ccccc4)OC3CCC2(C)C1CC(Sc1ccccc1)C1=CCOC1=O (centres undefined) from this test.
Completion: f

---

system: HT29 colon; assay: NCI-60 one-dose screen, 48 h; conditions: 10 µM unless noted
Compounds without any hit were thinned out: in the full panel of roughly 83,000, 20% have a hit. The source made the active and inactive calls. How the source made its calls: active means growth percent below 10; inactive means the rest.
Pick one: active, inactive

Example results:
Prompt: I'd appreciate the recorded outcome for C=C1CCC2C3(C)COC(c4ccccc4F)OC3CCC2(C)C1CC(O)C1=CCOC1=O (centres undefined) from this test.
Completion: active

Prompt: I'd appreciate the recorded outcome for Cn1cc(-c2nc(N)nnc2-c2c[nH]c3ccc(Br)cc23)c2cccnc21 from this test.
Completion: inactive

Prompt: I'd appreciate the recorded outcome for S=C(Nc1ccccc1)Nc1ccc(OCc2nc3ccccc3[nH]2)cc1 from this test.
Completion: inactive

Prompt: I'd appreciate the recorded outcome for CCCn1cc(-c2nc(Nc3ccc(C(=O)NCCCCNc4cccc5c4C(=O)N(C4CCC(=O)NC4=O)C5=O)cc3)nc3[nH]ccc23)cn1 (centres undefined) from this test.
Completion: inactive

Prompt: I'd appreciate the recorded outcome for COc1cccc(-c2nc(Nc3ccc(S(N)(=O)=O)cc3)c3ccccc3n2)c1 from this test.
Completion: inactive

Prompt: I'd appreciate the recorded outcome for CN1CCN(Cc2ccc(C(=O)Nc3cccc(C#Cc4cccc5[nH]nc(N)c45)c3)cc2C(F)(F)F)CC1 from this test.
Completion: active

---
Prompt: I'd appreciate the recorded outcome for NS(=O)(=O)c1ccc(-n2cc(-c3cccc(NC(=O)c4ccc(Cl)c(C(F)(F)F)c4)c3)nn2)cc1 from this test.
Completion: active

Prompt: I'd appreciate the recorded outcome for CC1CN(c2oc(-c3ccc([N+](=O)[O-])cc3)nc2C#N)CC(C)O1 (centres undefined) from this test.
Completion: inactive

Prompt: I'd appreciate the recorded outcome for Cn1cc(-c2cc3nc(-c4cn(C)c5ncccc45)cc(N)n3n2)c2cc(Cl)ccc21 from this test.
Completion: active

---

tested on: ACHN renal; assay: NCI-60 one-dose screen, 48 h (100 = growth as untreated, 0 = no growth, -100 = all killed); conditions: 10 µM unless noted
About 83,000 compounds went through this panel and 20% of them were active in at least one assay; those are over-represented in the sample as a whole.
Measured growth values are reported for all entries that follow.
Numeric answer only, unit % assumed.

Prompt: Which growth value is on record for C=C1CCC2C3(C)COC(c4ccc(F)cc4)OC3CCC2(C)C1CC(O)C1=CCOC1=O (stereo not drawn) ?
Completion: 30.2

Prompt: Which growth value is on record for O=C(N/N=C/c1ccc(-c2ccc(O)cc2)o1)c1[nH]c2ccc(Br)cc2c1-c1ccccc1 ?
Completion: -21.7

Prompt: Which growth value is on record for COc1cccc(-c2nc(Nc3ccc(S(N)(=O)=O)cc3)c3ccccc3n2)c1 ?
Completion: 17.7

Prompt: Which growth value is on record for C=C1CCC2C3(C)COC(c4ccccc4)OC3CCC2(C)C1CC(NCc1ccccc1)C1=CCOC1=O (stereo not drawn) ?
Completion: 86.4

Prompt: Which growth value is on record for C=C1CCC2C3(C)COC(c4ccccc4)OC3CCC2(C)C1CC(Sc1ccccc1)C1=CCOC1=O (stereo not drawn) ?
Completion: 65.1

---
Prompt: Which growth value is on record for C#CCOc1cc(N(CC)CC)ccc1C(C(=O)NC(C)(C)C)N(C(=O)C1CCc2cc(F)ccc2O1)c1ccc(F)cc1 (stereo not drawn) ?
Completion: 33.5

Prompt: Which growth value is on record for N#Cc1c(-c2ccc(Br)cc2)nc2n[nH]c(-c3ccc(Br)cc3)c2c1-c1ccc(F)cc1 ?
Completion: 91.2

Prompt: Which growth value is on record for C#CCOc1cc(N(CC)CC)ccc1C(C(=O)NC(C)(C)C)N(C(=O)C1CCc2cc(F)ccc2O1)c1ccc(F)c(Cl)c1 (stereo not drawn) ?
Completion: 61.6

---

test system: SW-620 colon; assay: NCI-60 one-dose screen, 48 h (100 = growth as untreated, 0 = no growth, -100 = all killed); conditions: 10 µM unless noted
The panel holds about 83,000 compounds, 20% with a hit somewhere; the sample as a whole holds those more often.
readout_label: growth (%)
Numeric answer only, unit % assumed.

Some entries whose results are on file:
Prompt: Which growth value is on record for COc1cc(NC(=O)c2cccc(C3CCc4c(cc(OC)c(OC)c4OC)O3)c2)cc(OC)c1OC (stereo not drawn) ?
Completion: 46.1

Prompt: Which growth value is on record for COc1cc2c(c(OC)c1OC)C(=O)CC(c1cccc(NC(=O)c3cc(NC(=O)[C@@H](N)CO)ccc3C)c1)O2 (stereo partly drawn) ?
Completion: 119

Prompt: Which growth value is on record for Cn1cc(-c2cc3nc(-c4cn(C)c5ncccc45)cc(N)n3n2)c2ccccc21 ?
Completion: 20.2

---
Prompt: Which growth value is on record for COc1ccc(-c2nc3cc(C)ccc3n2CC(=O)N=Nc2c(O)[nH]c3ccc(OC)cc23)cc1 ?
Completion: -48.2

Prompt: Which growth value is on record for COc1cc2c(c(OC)c1OC)C(=O)CC(c1cccc(NC(=O)c3cccc([N+](=O)[O-])c3)c1)O2 (stereo not drawn) ?
Completion: 34.9

Prompt: Which growth value is on record for COc1ccc(C(=O)/C=C/c2cccc(Br)c2)cc1S(N)(=O)=O ?
Completion: -19.8

Prompt: Which growth value is on record for COc1cc2oc(-c3cccc(C(=O)Nc4ccc(Cl)cc4)c3)cc(=O)c2c(OCCNC(=O)[C@@H](N)CCC(=O)O)c1OC ?
Completion: 106

Prompt: Which growth value is on record for C#CCOc1ccc(/C=N/Nc2nc(-c3ccc(F)cc3)cs2)cc1OC ?
Completion: 86.7

Prompt: Which growth value is on record for Cc1cc2c(cc1Cl)C(=O)/C(=C/c1ccc(F)cc1)O2 ?
Completion: 111

Prompt: Which growth value is on record for O=C(Cn1c(/C=C/c2ccccc2)nc2ccccc2c1=O)Nc1ccc(Cl)cc1 ?
Completion: 72.1
